The compounds listed here are annotated with their Population Pyknosed Nuclei (%).
- Tested on: HEK-293T
- PROTOCOL_SUMMARY: Multiplex assay against HEK293T
- Format: toxicity, cell-based
- PARTICULARS: human, 48 h, 10 µM, compound concentration 10 uM, replicate 1
Quick note: give the figure in %, leave out the unit.

Known Population Pyknosed Nuclei (%) results, listed for orientation:
C=C1/C(=C\C=C2/CCC[C@]3(C)[C@@H]([C@H](C)/C=C/[C@H](C)C(C)C)CC[C@@H]23)C[C@@H](O)C[C@@H]1O ... 40
CN1C2CCC1CC(OC(c1ccc(F)cc1)c1ccc(F)cc1)C2.Cl (stereo not drawn) ... 69
CCc1cccc(CC)c1NC(=O)c1nn(C)c2c1CCc1cnc(Nc3ccc(C(=O)NC4CCN(C)CC4)cc3OC(F)(F)F)nc1-2 ... 32
CCOc1cc(C(=O)N2CCC(N3CCN(C)CC3)CC2)ccc1Nc1ncc2c(n1)N(C1CCCC1)c1ccccc1C(=O)N2C ... 74
CN[C@@H]1C[C@H]2O[C@@](C)([C@@H]1OC)n1c3ccccc3c3c4c(c5c6ccccc6n2c5c31)C(=O)NC4 ... 62

Item under review: CCN1CCN(Cc2ccc(Nc3ncc(F)c(-c4cc(F)c5nc(C)n(C(C)C)c5c4)n3)nc2)CC1.CS(=O)(=O)O . Reported Population Pyknosed Nuclei (%)?
72

Item under review: S=C(NCCCc1c[nH]cn1)NCCCN(Cc1ccc(Cl)c(Cl)c1)c1ccc(Br)cn1 . Reported Population Pyknosed Nuclei (%)?
87

Item under review: CCCS(=O)(=O)c1nc(NC2CC2)cc(-c2ccc3c(ccn3C3CC(C)(C)NC(C)(C)C3)c2)n1 . Reported Population Pyknosed Nuclei (%)?
29

====

- Tested on: Fibroblast
- PROTOCOL_SUMMARY: Multiplex assay against human fibroblast
- Format: toxicity, cell-based
- PARTICULARS: 12 h, 1 µM, compound concentration 1 uM, replicate 2
The compounds listed here are annotated with their Population Normal (%).
Quick note: give the figure in %, leave out the unit.

CCOc1cc2ncc(C#N)c(Nc3ccc(OCc4ccccn4)c(Cl)c3)c2cc1NC(=O)/C=C/CN(C)C [NERATINIB] ... 91

Item under review: CCCn1c(=O)c2[nH]c(-c3cnn(Cc4cccc(C(F)(F)F)c4)c3)nc2n(CC)c1=O [GS 6201] . Reported Population Normal (%)?
97

Item under review: CN[C@@H]1C[C@H]2O[C@@](C)([C@@H]1OC)n1c3ccccc3c3c4c(c5c6ccccc6n2c5c31)C(=O)NC4 [STAUROSPORINE] . Reported Population Normal (%)?
53

Item under review: COc1cc2ncnc(Nc3ccc(F)c(Cl)c3)c2cc1NC(=O)/C=C/CN1CCCCC1 [DACOMITINIB ANHYDROUS] . Reported Population Normal (%)?
42

====

The molecules listed here are annotated with their Population Pyknosed Nuclei (%).
- Test system: HEK-293T
- PROTOCOL_SUMMARY: Multiplex assay against HEK293T
- Type: toxicity, cell-based
- PARTICULARS: human, 12 h, 1 µM, compound concentration 1 uM, replicate 1
Quick note: give the figure in %, leave out the unit.

Known Population Pyknosed Nuclei (%) results, listed for orientation:
CNc1cc(Oc2cc(C(=O)Nc3cc(N4CCN(C)CC4)cc(C(F)(F)F)c3)ccc2C)ncn1 ... 72
O=C1NC(=O)C(c2cnc3ccccn23)=C1c1cn2c3c(cc(F)cc13)CN(C(=O)N1CCCCC1)CC2 ... 73

Item under review: CCOC(=O)c1c(C)[nH]c2ccc3c(c12)CN1CCc2cc(OC)ccc2C1O3 (stereo unspecified) . Reported Population Pyknosed Nuclei (%)?
54

Item under review: O=C(Cc1ccc(-c2ccc(OCCN3CCOCC3)cc2)cn1)NCc1ccccc1 . Reported Population Pyknosed Nuclei (%)?
61

Item under review: CCn1c(=O)c(-c2ccc(-c3cncs3)cc2Cl)cc2cnc(Nc3ccc(N4CCN(C)CC4)cc3)nc21 . Reported Population Pyknosed Nuclei (%)?
46

Item under review: CN1CCN(C(=O)C(C)(C)c2ccc(C(=O)Nc3cn4cc(-c5cc(C(C)(C)C)cc(C(C)(C)C)c5)ccc4n3)cc2)CC1 . Reported Population Pyknosed Nuclei (%)?
25

====

- System: HEK-293T
- PROTOCOL_SUMMARY: Multiplex assay against HEK293T
- Format: toxicity, cell-based
- PARTICULARS: human, 24 h, 1 µM, compound concentration 1 uM, replicate 2
OUTCOME_MEASURE: Population Mitochondria Different-Phenotype (%)
Quick note: give the figure in %, leave out the unit.

Known Population Mitochondria Different-Phenotype (%) results, listed for orientation:
O=C(Nc1ccc(-c2ccnc(Nc3ccc(N4CCOCC4)cc3)n2)cc1)[C@@H]1CCCN1 ... 21
COc1cc(N2CCN(C)CC2)ccc1Nc1ncc2c(n1)N(C)c1ccccc1C(=O)N2C ... 40

Item under review: CCN1CCN(Cc2ccc(Nc3ncc(F)c(-c4cc(F)c5nc(C)n(C(C)C)c5c4)n3)nc2)CC1.CS(=O)(=O)O . Reported Population Mitochondria Different-Phenotype (%)?
88

Item under review: CCOc1cc2ncc(C#N)c(Nc3ccc(OCc4ccccn4)c(Cl)c3)c2cc1NC(=O)/C=C/CN(C)C [NERATINIB] . Reported Population Mitochondria Different-Phenotype (%)?
24

Item under review: Cl.Oc1ccc2c3c1O[C@H]1c4[nH]c5c(c4C[C@@]4(O)[C@@H](C2)N(CC2CC2)CC[C@]314)C[C@@]1(O)[C@H]2Cc3ccc(O)c4c3[C@@]1(CCN2CC1CC1)[C@H]5O4 . Reported Population Mitochondria Different-Phenotype (%)?
13

Item under review: O=C(Nc1ccc(Cl)cc1)Nc1cccc(-c2cccc(N3CCCC3)n2)c1 . Reported Population Mitochondria Different-Phenotype (%)?
2

====

- Test system: Fibroblast
- PROTOCOL_SUMMARY: Multiplex assay against human fibroblast
- Type: toxicity, cell-based
- PARTICULARS: 12 h, 1 µM, compound concentration 1 uM, replicate 1
The molecules listed here are annotated with their Population Membrane Permeable-Phenotype (%).
Quick note: give the figure in %, leave out the unit.

CCN1CCN(Cc2ccc(Nc3ncc(F)c(-c4cc(F)c5nc(C)n(C(C)C)c5c4)n3)nc2)CC1.CS(=O)(=O)O ... 17
CCN1CCN(c2ccc(Nc3cc(N(C)C(=O)Nc4c(Cl)c(OC)cc(OC)c4Cl)ncn3)cc2)CC1 [INFIGRATINIB] ... 2
Cc1ccc2nc(NCCN)c3ncc(C)n3c2c1.O=C(O)C(F)(F)F.O=C(O)C(F)(F)F ... 5
COc1ccc(S(=O)(=O)N(CCO)c2ccccc2CN(C)C/C=C/c2ccc(Cl)cc2)cc1.O=P(O)(O)O ... 12
CCNc1cc(N[C@H]2CC[C@H](O)CC2)nc(Nc2ccc3c(ccn3Cc3ccccc3)c2)n1 ... 2

Item under review: NC(=O)c1cccc(-c2cc(Nc3ccc(OC(F)(F)F)cc3)ncn2)c1 . Reported Population Membrane Permeable-Phenotype (%)?
5

Item under review: COc1cccc2cc(-c3nc([C@H]4CC[C@H](C(=O)O)CC4)n4ncnc(N)c34)[nH]c12 [OSI-027] . Reported Population Membrane Permeable-Phenotype (%)?
5

====

- Tested on: U2OS
- PROTOCOL_SUMMARY: Multiplex assay against U2OS
- Assay type: toxicity, cell-based
- PARTICULARS: human, 24 h, 10 µM, compound concentration 10 uM, replicate 2
The molecules listed here are annotated with their Population Pyknosed Nuclei (%).
Quick note: give the figure in %, leave out the unit.

Known Population Pyknosed Nuclei (%) results, listed for orientation:
COc1cc2ncnc(Nc3ccc(F)c(Cl)c3)c2cc1NC(=O)/C=C/CN1CCCCC1 [DACOMITINIB ANHYDROUS] ... 5
O=C1N/C(=N/c2ccccc2F)S/C1=C\c1ccc(C(=O)O)cc1 ... 5

Next molecule, please.
# returns recorded Population Pyknosed Nuclei (%) (system: U2OS) for Cn1nc(C(=O)NCc2ccc(C(=O)O)cc2)cc1-c1ccc2[nH]ccc2c1
5

====

- Tested on: U2OS
- PROTOCOL_SUMMARY: Multiplex assay against U2OS
- Format: toxicity, cell-based
- PARTICULARS: human, 48 h, 1 µM, compound concentration 1 uM, replicate 2
OUTCOME_MEASURE: Population Mitotic Cells (%)
Quick note: give the figure in %, leave out the unit.

COc1cc(N2CCN(C)CC2)ccc1Nc1ncc2c(n1)N(C)c1ccccc1C(=O)N2C ... 40
CCCn1c(=O)c2[nH]c(-c3cnn(Cc4cccc(C(F)(F)F)c4)c3)nc2n(CC)c1=O [GS 6201] ... 58
S=C(NCCCc1c[nH]cn1)NCCCN(Cc1ccc(Cl)c(Cl)c1)c1ccc(Br)cn1 ... 77

Item under review: CN(C)C(=O)C(CCN1CCC(O)(c2ccc(Cl)cc2)CC1)(c1ccccc1)c1ccccc1.Cl [LOPERAMIDE HYDROCHLORIDE] . Reported Population Mitotic Cells (%)?
38

Item under review: CN1C2CCC1CC(OC(c1ccc(F)cc1)c1ccc(F)cc1)C2.Cl (stereo not given) . Reported Population Mitotic Cells (%)?
100

Item under review: CCCS(=O)(=O)c1nc(NC2CC2)cc(-c2ccc3c(ccn3C3CC(C)(C)NC(C)(C)C3)c2)n1 . Reported Population Mitotic Cells (%)?
41

Item under review: CNc1cc(Oc2cc(C(=O)Nc3cc(N4CCN(C)CC4)cc(C(F)(F)F)c3)ccc2C)ncn1 . Reported Population Mitotic Cells (%)?
50

Item under review: O=C(Nc1ccc(Cl)cc1)Nc1cccc(-c2cccc(N3CCCC3)n2)c1 . Reported Population Mitotic Cells (%)?
50

Item under review: O=C1NC(=O)C(c2cnc3ccccn23)=C1c1cn2c3c(cc(F)cc13)CN(C(=O)N1CCCCC1)CC2 [LY-2090314] . Reported Population Mitotic Cells (%)?
27

Item under review: O=C(Cc1ccc(-c2ccc(OCCN3CCOCC3)cc2)cn1)NCc1ccccc1 [TIRBANIBULIN] . Reported Population Mitotic Cells (%)?
25

Item under review: O=C(Nc1ccc(-c2ccnc(Nc3ccc(N4CCOCC4)cc3)n2)cc1)[C@@H]1CCCN1 . Reported Population Mitotic Cells (%)?
100

Item under review: CCc1cccc(CC)c1NC(=O)c1nn(C)c2c1CCc1cnc(Nc3ccc(C(=O)NC4CCN(C)CC4)cc3OC(F)(F)F)nc1-2 . Reported Population Mitotic Cells (%)?
90

Item under review: CCN1CCN(Cc2ccc(Nc3ncc(F)c(-c4cc(F)c5nc(C)n(C(C)C)c5c4)n3)nc2)CC1.CS(=O)(=O)O . Reported Population Mitotic Cells (%)?
35

Item under review: O=C1N/C(=N/c2ccccc2F)S/C1=C\c1ccc(C(=O)O)cc1 . Reported Population Mitotic Cells (%)?
100

Item under review: Cc1cn(-c2cc(NC(=O)c3ccc(C)c(Nc4nccc(-c5cccnc5)n4)c3)cc(C(F)(F)F)c2)cn1 [NILOTINIB] . Reported Population Mitotic Cells (%)?
75
